For each of the molecules below, state its inhibition.
# tested.system: 5'-AMP-activated protein kinase catalytic subunit alpha-2 (Homo sapiens) (UniProt P54646);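 further: mean inhibition measured on the AMPK complex of alpha2, beta1 and gamma1 subunits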
# Sequence (P54646 whole entry, looked up): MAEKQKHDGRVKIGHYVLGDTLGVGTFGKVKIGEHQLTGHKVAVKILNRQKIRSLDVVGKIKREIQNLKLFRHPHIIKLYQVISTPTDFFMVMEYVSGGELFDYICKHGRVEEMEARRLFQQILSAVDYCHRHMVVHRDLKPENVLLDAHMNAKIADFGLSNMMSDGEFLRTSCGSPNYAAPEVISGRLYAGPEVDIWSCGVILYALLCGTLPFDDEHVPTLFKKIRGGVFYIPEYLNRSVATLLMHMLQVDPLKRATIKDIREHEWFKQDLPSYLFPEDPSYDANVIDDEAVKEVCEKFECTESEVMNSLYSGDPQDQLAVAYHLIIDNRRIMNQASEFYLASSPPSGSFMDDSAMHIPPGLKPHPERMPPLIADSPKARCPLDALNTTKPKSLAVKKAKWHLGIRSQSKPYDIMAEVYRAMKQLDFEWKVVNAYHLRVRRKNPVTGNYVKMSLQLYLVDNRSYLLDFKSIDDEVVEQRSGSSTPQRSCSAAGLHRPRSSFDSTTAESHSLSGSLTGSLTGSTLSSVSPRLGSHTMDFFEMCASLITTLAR
# cond: at 0.1 µM
# Description: GSK_PKIS: AMPKA2 (A2B1G1) mean inhibition at 0.1 uM [Nanosyn]
One number for each entry, in %.

COc1cccc(/C=N/Nc2ncnc3c2cnn3-c2cccc(OC)c2)c1    5.39
Cc1ccc(NC(=O)c2ccoc2)cc1-c1ccc(C(=O)NCC2CC2)cc1    -0.17
CCS(=O)(=O)c1ccc(OC)c(Nc2ncc(-c3cccc(-c4ccccc4F)c3)o2)c1    1.79

Please go through the list and note inhibition for each molecule.
1. O=C1NC(=O)C(c2cccc(Cl)c2)=C1Nc1ccc(Cl)c(C(=O)O)c1
2. CS(=O)(=O)CCNCc1ccc(-c2ccc3ncnc(Nc4ccc(OCc5ccccc5)c(Br)c4)c3c2)o1

Result string:
[-0.69, 1.41]
